The values you see were collected from paper PMC4052532.

- protocol.text: Biodistribution studies
- Type: in vivo
- condition.info: female, BALB/c nude, mouse, lung, iv, total radioactivity; 8 h postinjection, ~7.4 MBq i.v., n = 5, mean ± SD; read-out: Lung uptake
Where a SMILES comes first, the peptide text is derived from it. Bridges are numbered along the chain shown (N, C = ends).
assay.readout: tissue uptake at 8 h (%ID/g)
Provide the reading as a plain figure in %ID/g.

Exercise: May I ask what tissue uptake at 8 h has been recorded for N=C(N)NCCC[C@@H]1NC(=O)CNC(=O)[C@H](CC(N)=O)NC(=O)[C@@H](NC(=O)CNC(=O)CNC(=O)[C@@H](N)Cc2ccc(O)cc2)CSSC[C@@H](C(=O)O)NC1=O [^99mTc-NGR, metal not drawn] (H-YGGCNGRC-OH; disulfide 4-8) ?
Key: 1.86
